molecular target: KRAS WT (Homo sapiens (Human), UniProt P01116+P62937); assay: Ras-Raf (BRAF RBD) disruption / FRET / MOA assay, KRAS WT; assay type: biochemical; details: read-out: IC50* KRAS WT FRET data
Sequence (P01116-2 other isoform, or with tags, fused parts or gaps): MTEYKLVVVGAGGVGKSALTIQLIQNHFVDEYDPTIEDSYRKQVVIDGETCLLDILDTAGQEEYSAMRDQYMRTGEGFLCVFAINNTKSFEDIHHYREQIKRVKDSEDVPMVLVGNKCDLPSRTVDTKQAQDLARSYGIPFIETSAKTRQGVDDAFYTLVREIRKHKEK
Sequence (P62937 whole entry): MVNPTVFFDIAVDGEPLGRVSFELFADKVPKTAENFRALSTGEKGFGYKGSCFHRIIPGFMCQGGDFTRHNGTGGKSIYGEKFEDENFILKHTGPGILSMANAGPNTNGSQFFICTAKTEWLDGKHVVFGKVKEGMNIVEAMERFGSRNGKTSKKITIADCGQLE
pIC50: −log10 of the molar value.
PROPERTY_MEASURED: pIC50

These solved cases illustrate the format of a correct answer.
CCn1c(-c2cccnc2[C@H](C)OC)c2c3cc(ccc31)-c1cc(O)cc(c1)C[C@H](NC(=O)[C@H](C(C)C)N(C)C(=O)[C@H]1CCN(C(=O)C#CCN3[C@@H](C)COC[C@@H]3C)C1)C(=O)N1CCC[C@H](N1)C(=O)OCC(C)(C)C2 (atropisomer, axis not shown) : 6.00 to 7.00
C=CC(=O)N1CC[C@H](C(=O)N(C)[C@H](C(=O)N[C@H]2Cc3csc(n3)-c3ccc4c(c3)c(c(-c3cc(N5CCN(C)CC5)cnc3[C@H](C)OC)n4CC(F)(F)F)CC(C)(C)COC(=O)[C@@H]3CCCN(N3)C2=O)C(C)C)C1 : 6.00 to 7.00
C=CC(=O)N(C)CC(=O)N(C)[C@H](C(=O)N[C@H]1Cc2cc(O)cc(c2)-c2ccc3c(c2)c(c(-c2cccnc2COC)n3CC)CC(C)(C)COC(=O)[C@@H]2CCCN(N2)C1=O)C(C)C : 6.00 to 7.00
CCn1c(-c2cnccc2[C@H](C)OC)c2c3cc(ccc31)-c1cccc(c1)C[C@H](NC(=O)[C@H](C(C)C)N(C)C(=O)[C@H]1CCN(C(=O)C#CCN(C)C)C1)C(=O)N1CCC[C@H](N1)C(=O)OCC(C)(C)C2 : 5.00 to 6.00
CCn1c(-c2cccnc2[C@H](C)OC)c2c3cc(ccc31)-c1csc(n1)C[C@H](NC(=O)[C@H](C(C)C)N1CC[C@]3(CCN(C(=O)C#CC(C)(C)N(C)C)C3)C1=O)C(=O)N1CCC[C@H](N1)C(=O)OCC(C)(C)C2 (atropisomer, axis not shown) : 5.00 to 6.00
CCn1c(-c2cccnc2[C@H](C)OC)c2c3cc(ccc31)-c1csc(n1)C[C@H](NC(=O)CCOC1CN(C(=O)C#CC(C)(C)N3CCC3)C1)C(=O)N1CCC[C@H](N1)C(=O)OCC(C)(C)C2 (atropisomer, axis not shown) : 5.00 to 6.00
CCn1c(-c2cccnc2[C@H](C)OC)c2c3cc(ccc31)N1CCC[C@@H](C[C@H](NC(=O)[C@H](C(C)C)N(C)C(=O)C3(F)CCN(C(=O)C#CC(C)(C)N(C)C)CC3)C(=O)N3CCC[C@H](N3)C(=O)OCC(C)(C)C2)C1 (atropisomer, axis not shown) [Example A615] : < 5.00
CO[C@@H](C)c1ncccc1-c1c2c3cc(ccc3n1C)-c1cccc(c1)C[C@H](NC(=O)[C@H](C(C)C)N(C)C(=O)[C@H]1CCN(C(=O)C#CCN3CCOCC3)C1)C(=O)N1CCC[C@H](N1)C(=O)OCC(C)(C)C2 (atropisomer, axis not shown) : < 5.00
C=CC(=O)N1CCO[C@H]2CN(C(=O)N(C)[C@H](C(=O)N[C@H]3Cc4nc(n(C)n4)-c4ccc5c(c4)c(c(-c4cccnc4[C@H](C)OC)n5CC(F)(F)F)CC(C)(C)COC(=O)[C@@H]4CCCN(N4)C3=O)C(C)C)C[C@H]21 (atropisomer, axis not shown) : 6.00 to 7.00
CCn1c(-c2cccnc2[C@H](C)OC)c2c3cc(ccc31)-c1csc(n1)C[C@H](NC(=O)[C@H](C(C)C)N(C)C(=O)N1CCN(C(=O)/C=C/CN(C)C)C3(CC3)C1)C(=O)N1CCC[C@H](N1)C(=O)OCC(C)(C)C2 (atropisomer, axis not shown) : 6.00 to 7.00

For C=CC(=O)N1CC[C@H](N(C)C(=O)N(C)[C@H](C(=O)N[C@H]2Cc3nc(cs3)-c3ccc4c(c3)c(c(-c3cccnc3[C@H](C)OC)n4CC)CC(C)(C)COC(=O)[C@@H]3CCCN(N3)C2=O)C(C)C)C1 (atropisomer, axis not shown) the compound record lists pIC50 as 6.00 to 7.00

The recorded pIC50 for CCn1c(-c2cccnc2[C@H](C)OC)c2c3cc(ccc31)-c1cccc(c1)C[C@H](NC(=O)[C@@H](COC1CN(C(=O)C#CC(C)(C)N3CCC3)C1)C(C)C)C(=O)N1CCC[C@H](N1)C(=O)OCC(C)(C)C2 (atropisomer, axis not shown) is < 5.00

So, C=CC(=O)C1CC[C@H](C(=O)N(C)[C@H](C(=O)N[C@H]2Cc3nsc(n3)-c3ccc4c(c3)c(c(-c3cccnc3[C@H](C)OC)n4CC)CC(C)(C)COC(=O)[C@@H]3CCCN(N3)C2=O)C(C)C)C1 (stereo partly drawn) ? Its pIC50 was 5.00 to 6.00

Notebook: C#CCn1c(-c2cccnc2[C@H](C)OC)c2c3cc(ccc31)-c1cccc(c1)C[C@H](NC(=O)[C@H](C(C)C)N(C)C(=O)[C@H]1CCN(C(=O)C=C)C1)C(=O)N1CCC[C@H](N1)C(=O)OCC(C)(C)C2 (atropisomer, axis not shown) , pIC50 read as 5.00 to 6.00

pIC50 recorded for this compound, CO[C@@H](C)c1ncccc1-c1c2c3cc(ccc3n1CC(F)(F)F)-c1csc(n1)C[C@H](NC(=O)[C@H](C(C)C)N(C)C(=O)N1C[C@@H]3OCCN(C(=O)/C=C/CN(C)C)[C@@H]3C1)C(=O)N1CCC[C@H](N1)C(=O)OCC(C)(C)C2 (atropisomer, axis not shown) , is 6.00 to 7.00
